target: GLP-1R (Homo sapiens)
Sequence (P43220 24-463): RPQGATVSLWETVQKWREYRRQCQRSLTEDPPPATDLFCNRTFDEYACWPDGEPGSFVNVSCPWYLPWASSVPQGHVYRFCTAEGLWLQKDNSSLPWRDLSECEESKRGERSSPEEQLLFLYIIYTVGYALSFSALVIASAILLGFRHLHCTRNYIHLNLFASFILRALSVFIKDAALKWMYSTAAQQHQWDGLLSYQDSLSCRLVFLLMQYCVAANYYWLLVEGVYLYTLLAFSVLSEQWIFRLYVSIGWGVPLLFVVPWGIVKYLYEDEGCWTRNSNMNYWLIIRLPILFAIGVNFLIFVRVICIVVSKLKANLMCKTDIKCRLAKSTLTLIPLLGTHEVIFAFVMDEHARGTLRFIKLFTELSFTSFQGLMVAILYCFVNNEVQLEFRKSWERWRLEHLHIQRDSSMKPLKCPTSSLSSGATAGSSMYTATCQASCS
assayExplanation: GLP-1R agonist cAMP stimulation assay (HTRF cAMP)
experimentalSetup: HEK293 cell line expressing GLP-1 target; HTRF cAMP agonist mode, 30 min at RT
reportedProperty: pEC50
Recall that pEC50 is obtained by taking minus log10 of the concentration measured in molar.

| molecule | reportedValue |
| --- | --- |
| CCn1cncc1Cn1c(CN2CCC(c3cccc(OCc4ccc(Cl)cc4F)n3)CC2)nc2cc(NC(=O)c3cc(F)c4[nH]nc(C)c4c3)ccc21 | 9.04 |
| N#Cc1ccc(COc2cccc(C3=CCN(Cc4nc5cc(NC(=O)c6cc(F)c7c(c6)C6(CC6)C(=O)N7)ccc5n4C[C@@H]4CCO4)CC3)n2)c(F)c1 [Compound 226] | 9.92 |
| Cc1n[nH]c2c(C(F)(F)F)cc(C(=O)Nc3ccc4c(c3)nc(CN3CC=C(c5cccc(OCc6ccc(Cl)cc6F)n5)CC3)n4C[C@@H]3CCO3)cc12 | 9.41 |
| Cc1n[nH]c2ccc(NC(=O)c3ccc4c(c3)nc(CN3CC=C(c5cccc(OCc6ccc(Cl)cn6)n5)CC3)n4C[C@@H]3CCO3)cc12 | 9.35 |

Q: What value of pEC50 has been recorded for this entry: NC(=O)C[C@H](NC(=O)c1ccc2c(c1)nc(CN1CCC(c3cccc(OCc4ccc(Cl)cc4F)n3)CC1)n2CC1CCO1)C(=O)O (stereo partly drawn)
Result: 7.89
